test system: M14; assay: NCI tumour cell line growth inhibition, 48 h
Activity calls are given as the source filed them. Cut-off read from the data, not from the text of the source: active = GI50 up to about 1.1 µM and inactive = higher.
Please state which outcome applies, choosing from 1 (active), -1 (inactive)

{"columns": ["compound", "class-name"],
 "data": [
  ["Cc1ccc(NC(=O)CSc2nnc(Cc3ccccc3)o2)cc1", -1]
]}

Any idea what this test logged for C=C1C(=O)OC2CC1C(O)C/C(C)=C/CC/C(C)=C/C(O)CC2C (centres undefined) ?
-1

# outcome recorded in this test, key = Cc1ccc(OCC2OC(n3cnc4nc(Cl)nc(Cl)c43)CC2Oc2ccc(C)cc2)cc1 (centres undefined)
-1

Recorded call for CN(C)CCn1c(=O)c2ccc(NCCCN(C)CCCNc3ccc4c(=O)n(CCN(C)C)c(=O)n5c6ccc([N+](=O)[O-])cc6c(=O)c3c45)c3c(=O)c4cc([N+](=O)[O-])ccc4n(c1=O)c23 ?
1

// outcome(item) with item = O=C1C(Cl)C(c2cc(Br)ccc2O)N1n1cnc2ccccc2c1=O (centres undefined)
-1

Query: recorded result category for Cn1c(O)c(C(=O)NC2CCCCC2)c(=O)n(C)c1=S in this test
-1

Tell me the assay call for Cc1c[n+]([O-])c2ccccc2[n+]1[O-] please.
-1

Identify the outcome logged in this assay for the compound shown: CC1=C(/C=C/C(C)=C/C=C/C(C)=C/C(=O)O)C(C)(C)CCC1
-1

Which outcome did this test record for the compound O=C(OCC(OC(=O)c1ccccc1)C(OC(=O)c1ccccc1)C(OC(=O)c1ccccc1)c1cnn(-c2ccccc2)n1)c1ccccc1 (centres undefined) ?
-1

###

system: SNB-75; test: NCI tumour cell line growth inhibition, 48 h
Activity calls are given as the source filed them. Cut-off read from the data, not from the text of the source: active = GI50 up to about 1.1 µM and inactive = higher.
Result category, one only: T for active, F for inactive

{"columns": ["compound", "class-name"],
 "data": [
  ["CCOC(=O)c1c(-c2ccc(Cl)cc2)c(C#N)c(=S)n(C2OC(CO)C(O)C(O)C2O)c1-c1ccccc1 (centres undefined)", "F"],
  ["O=[N+]([O-])C(=C(Nc1ccccc1)Nc1ccccc1)/C(Cl)=C(\\Cl)[N+](=O)[O-]", "F"],
  ["CC(=O)c1c2c(cc3c1CC1(C3)Cc3cc4c(c(C(=O)O)c3C1)CCC4)CCC2 (centres undefined)", "F"],
  ["OC(c1cc(-c2ccc(Cl)cc2)nc2ccccc12)C1CCCCN1 (centres undefined)", "F"],
  ["COc1cccc(OC)c1C(=O)OCc1ccccc1", "F"],
  ["CCSc1c(C)c2c(n(Cc3ccc(OC)cc3)c1=O)Cc1ccccc1C2", "F"]
]}

Dear all, I need the recorded test outcome for Nc1nc(-c2ccccc2)nc2oc(-c3cccs3)nc12 , thank you.
F

Test call for this compound, please: N[C@H]1c2c(Br)sc(Br)c2C(=O)[C@H]1O
F

Name the outcome recorded for CN(C)[C@@H]1C(O)=C(C(=O)NCN2CCN(C(=N)NC(=N)N)CC2)C(=O)[C@@]2(O)C(O)=C3C(=O)c4c(O)cccc4[C@@](C)(O)[C@H]3C[C@@H]12 in the assay.
T

###

tested on: 786-0; test: NCI tumour cell line growth inhibition, 48 h
Activity calls are given as the source filed them. Cut-off read from the data, not from the text of the source: active = GI50 up to about 1.1 µM and inactive = higher.
Respond using exactly one of the listed classes: active, inactive

Answer briefly: the call reported for Cc1ccc(S(=O)(=O)NC(C)C(=O)O)cc1 (stereo not given) in this assay.
inactive

# outcome recorded in this test, key = Oc1ccc(/C=C/c2cccc(/C=C/c3ccc(O)c(O)c3)n2)cc1O
inactive

Look up the recorded call for Cc1ccc2c(=O)c(-c3nnsn3)c[nH]c2n1 in this test.
inactive

Could you kindly confirm the outcome this assay logged for Cc1ccc(O)c(C(=O)CCCC(=O)c2cc(C)ccc2O)c1 ?
inactive

State the result this test recorded for c1ccc(Cn2c(-c3ccc(-c4ccccc4)cc3)cc3ccccc32)cc1 .
inactive

Recorded test call requested for CCCCCCCCCCCCCCCCSS(C)(=O)=O
inactive

Test call, this molecule: C=CCSc1nc2c(N)ncnc2n1C1OC(CO)C(O)C1O (stereo not given)
inactive

Please share the test call associated with CCOC(=O)C1OC(C2(C)OC3(OC4(C=CC3O)OC(C(C)C(=O)C(C)C(O)C(C)CC(C)c3c(Cl)cc(C)c(O)c3C(=O)O)C(C)CC4C)C(C)C2OC)CC1O (stereo not given) .
active

Dear all, I need the recorded test outcome for CC1(C)CCCC(C)(C2CCC3(C)C2C(O)CC2C4(C)CCC(O)C(C)(C)C4CCC23C)O1 (stereo not given) , thank you.
inactive

# fetch the recorded call for CC(=O)Oc1c(-c2ccccc2)oc2ccccc12 here
inactive
